The measurements presented in this section are drawn from patent US20250026849A1.

Entries and their ELISA_avg
Target: T1, BCMA (Homo sapiens (Human), UniProt Q02223 1-54, limits assumed)
T1 sequence: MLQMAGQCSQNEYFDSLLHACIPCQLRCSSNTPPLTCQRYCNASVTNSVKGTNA
Test: ELISA, format not described
Parameters: unit not given here
Give only the figure.

Example binders with recorded ELISA_avg:
>>> experimental_result("D-domain SEQ ID NO: 276 (designed binder) MGSWSHFKYHLALIKWYLEALGGSEAELAKFEFWIAEFEHNLQMYKGKGNPEVEALRKEAAAIRDELQAYRHN")
7.93
>>> experimental_result("D-domain SEQ ID NO: 182 (designed binder) MGSWSEFWDRLYAIRIRLDALGGSEAELAAFEKEIAAFESELQAYKGKGNPEVEKLRSVAARIRNWLQAYRHN")
12.5
>>> experimental_result("D-domain SEQ ID NO: 134 (designed binder) MGSWLEFDRRLTAIYLRLWALGGSEAELAAFEKEIAAFESELQAYKGKGNPEVEALREDAAMIRDMLQAYRHN")
9.82
>>> experimental_result("D-domain SEQ ID NO: 167 (designed binder) MGSWHEFDGRLSAIKRRLWALGGSEAELAAFEKEIAAFESELQAYKGKGNPEVEHLRDQAAYIRYMLQAYRHN")
5.4
>>> experimental_result("D-domain SEQ ID NO: 256 (designed binder) MGSWQHFKYRLAIIKWYLEALGGSEAELAFFESFIAKFEHDLQKYKGKGNPEVEALRKEAAAIRDELQAYRHN")
8.91

Given the entry D-domain SEQ ID NO: 71 (designed binder) MGSWYEFYDRLDAIVHRLDALGGSEAELAAFEKEIAAFESELQAYKGKGNPEVENLRWYAAMIRVRLQAYRHN , report its measured ELISA_avg.
14.7

How about this binder: D-domain SEQ ID NO: 309 (designed binder) MGSWYYFKYGLAVIKGKLEALGGSEAELADFETWIAKFENHLQSYKGKGNPEVEALRKEAAAIRDELQAYRHN
3.84

How about this binder: D-domain SEQ ID NO: 329 (designed binder) MGSWHTFKEALAQIKGELEALGGSEAELASFEYAIAVFEYRLQMYKGKGNPEVEALRKEAAAIRDELQAYRHN
6.76
